Tested on: M14
Experiment: NCI tumour cell line growth inhibition, 48 h
Calls of active or inactive are those of the source. Rule as the data show it: active = GI50 up to about 1.1 µM and inactive = higher.
# output must be one of Yes = active, No = inactive

Reference set (7 entries):
1) Cc1cccc(NC(=O)c2cc3cc(/N=N/c4ccccc4Cl)ccc3oc2=O)c1	No
2) C/C(=C\c1csc(C)n1)[C@@H]1C[C@@H]2O[C@@H]2CCC[C@H](C)[C@H](O)[C@@H](C)C(=O)C(C)(C)[C@@H](O)CC(=O)O1.C/C(=C\c1csc(C)n1)[C@@H]1C[C@@H]2O[C@]2(C)CCC[C@H](C)[C@H](O)[C@@H](C)C(=O)C(C)(C)[C@@H](O)CC(=O)O1	Yes
3) CC1=C(C(=O)OCCc2ccc([N+](=O)[O-])cc2)C(c2cccc([N+](=O)[O-])c2)C(C(=O)OC(C)C)=C(C)N1 (stereo not drawn)	No
4) O=C(c1cc2c(c3ccccc13)NCCN=C2C(F)(F)F)C(F)(F)F	No
5) CCN(CC)C(=S)N/N=C(/C)c1cccc(/C(C)=N\NC(=S)N(CC)CC)n1	No
6) O=C(Cl)C1=C(c2ccccc2)C1c1ccccc1 (stereo not drawn)	No
7) Cc1noc(NC(=O)Nc2ccccc2F)c1C#N	No

// switching to the query molecule
Q: Call for entry CCCCc1ccc(C#CC#Cc2ccc(CCCC)s2)s1 :
Result: No

====

System: SR
Assay: NCI tumour cell line growth inhibition, 48 h
Calls of active or inactive are those of the source. No stated cut-off is given here; in the data, active = GI50 up to about 1.1 µM and inactive = higher.
# output must be one of active, inactive

Reference set (3 entries):
1) O=C(CC(O)(C(F)(F)F)C(F)(F)F)c1cccs1	inactive
2) COC(=O)C1=C(O)C(C(=O)OC)[C@@]2(O)[C@@H](C(=O)OC)C(c3ccc(OC(=O)/C=C/c4ccccc4)cc3)C[C@@H]1[C@@H]2C(=O)OC (some centres not stated)	inactive
3) Cc1cc(-c2nc3ccc(F)cc3s2)ccc1NC(=O)C(N)CCCCN (configuration not stated)	inactive

Q: Call for entry COc1ccc(C(CC(=O)c2ccccc2)C(=O)c2ccc3c(c2)OCO3)cc1 (configuration not stated) :
Result: inactive

Q: Call for entry C=C(CN(C)C)C(=O)c1ccccc1[N+](=O)[O-] :
Result: inactive

Q: Call for entry CNC1=C(C)C(=O)C2=C(C1=O)C(COC(N)=O)C1(OC)C3NC3CN21 (configuration not stated) :
Result: active

====

Test system: OVCAR-3
Assay: NCI tumour cell line growth inhibition, 48 h
The source made the active and inactive calls. No stated cut-off is given here; in the data, active = GI50 up to about 1.1 µM and inactive = higher.
Below is a list of entries, each paired with its recorded GI50 value.

Below: 2 compounds and their reported GI50.
1) CCOC(=O)C1=C(Nc2ccc(Br)cc2)OCC1=O	> 100 µM (inactive)
2) O=c1nc(/C=C/c2ccccc2Cl)cc2n1CCN2CCO	28.6 µM (inactive)

Q: # GI50 lookup, item CCOC(=O)/C=C(\C(=O)OCC)n1cc(C)c(=O)n(Cc2cn(CCCCOC(C)=O)nn2)c1=O
Result: 13.3 µM (inactive)

Q: # GI50 lookup, item COc1cc(C2c3cc4c(cc3OC(O)C2C)OCO4)cc(OC)c1O (stereo not given)
Result: 4.24 µM (inactive)

Q: # GI50 lookup, item CSc1c(C#N)c(N)nc2c(/N=N\c3ccc(Br)cc3)c(N)nn12
Result: 2.95 µM (inactive)

Q: # GI50 lookup, item CCC(C)Cn1c(C)nc2c1C(=O)c1ccccc1C2=O (stereo not given)
Result: 23.3 µM (inactive)

Q: # GI50 lookup, item Cc1ccc2c(c1)C(=O)/C(=C\c1ccccc1)CCS2(=O)=O
Result: 13.1 µM (inactive)

Q: # GI50 lookup, item Cc1ccc(SC(C)/C=C/NNC2=NN=C(c3ccccc3)C(c3ccccc3)N2)cc1 (stereo not given)
Result: 25.5 µM (inactive)

====

Tested on: SNB-19
Test: NCI tumour cell line growth inhibition, 48 h
Active and inactive are the calls of the source. Cut-off read from the data, not from the text of the source: active = GI50 up to about 1.1 µM and inactive = higher.
# output must be one of active, inactive

Q: Call for entry O=C(NCCCN(CCCCN(CCCNC(=O)C(F)(F)F)CCCc1ccccc1)CCCc1ccccc1)C(F)(F)F :
Result: inactive

Q: Call for entry CCOC(=O)C1=C(Nc2ccc(Br)cc2)OCC1=O :
Result: inactive

Q: Call for entry COc1nc2c(nc(N)n2C2OCC(O)C(O)C2O)c(=O)n1C (stereo not given) :
Result: inactive

Q: Call for entry CCCCSC1=N/C(=C\c2ccco2)C(=O)N1 :
Result: inactive

Q: Call for entry CC1(C)C(=O)C(C)(C)C1=S :
Result: inactive

Q: Call for entry CC1(C)CCCCCCCCCC(C)(CCCCCCCCCCCCO)C1=O (stereo not given) :
Result: inactive

Q: Call for entry CC(=O)NC1C(OCc2ccccc2)OC(CO)C(O)C1OCC(=O)NC(C(=O)NC(CCC(=O)NCCCCCC(=O)Nc1ccc2c(c1)CN1C(=O)c3ccccc3C1=N2)C(N)=O)C(C)C (stereo not given) :
Result: inactive

Q: Call for entry CC1=C(N2CC2)C(=O)C(C)=C(N2CC2)C1=O :
Result: active

Q: Call for entry COc1ccc(C(CC(=O)c2ccccc2)C(=O)c2ccc3c(c2)OCO3)cc1 (stereo not given) :
Result: inactive

Q: Call for entry CC12C=CC(C)(C3C(=O)C4C(C(=O)C31)C1(C)C=CC4(C)[S+]1[O-])[S+]2[O-] (stereo not given) :
Result: inactive

====

Below is a list of entries, each paired with its recorded GI50 value.
System: MDA-MB-435
Assay: NCI tumour cell line growth inhibition, 48 h
Active and inactive are the calls of the source. No stated cut-off is given here; in the data, active = GI50 up to about 1.1 µM and inactive = higher.

Below: 10 molecules and their reported GI50.
1) CC(C)(C)c1cc(OCc2nnc(S)n2N)c(Cl)cc1OCc1nnc(S)n1N	39.5 µM (inactive)
2) COc1ccc(/N=N/C(=N/NC(=O)c2ccc(C)cc2)c2ccc(N(CCC#N)CCC#N)cc2OC)cc1	> 100 µM (inactive)
3) Cc1cc(-c2nc3ccc(F)cc3s2)ccc1NC(=O)C(N)CCCCN (stereo unspecified)	2.17 µM (inactive)
4) Nc1ccc(Sc2nnc(N)s2)cc1	> 100 µM (inactive)
5) O=C(Cl)C1=C(c2ccccc2)C1c1ccccc1 (stereo unspecified)	> 100 µM (inactive)
6) O=c1[nH]c2nc3ccccc3c(=O)n2/c1=C/c1ccc(Cl)cc1	21.7 µM (inactive)
7) Cc1ccc(S(=O)(=O)c2c(O)c3ccc(O)c(C)c3oc2=O)cc1	> 100 µM (inactive)
8) COc1cc(C(c2ccccc2)N2C(=O)CC[C@H]2C(=O)O)cc(OC)c1OC (stereo partly specified)	> 100 µM (inactive)
9) CC(=O)OC(=C(C#N)C#N)c1nccnc1C(=O)O	> 100 µM (inactive)
10) CCSC1=C(C#N)C2(CCCCC2)C2=C(O)CC(C)(C)CC2=N1	42.1 µM (inactive)

Q: // lookup GI50 | system=MDA-MB-435 | key= Cc1c(F)c(N)c2c(=O)cc(-c3ccc(N)c(F)c3)oc2c1F
Result: 43.5 µM (inactive)

Q: // lookup GI50 | system=MDA-MB-435 | key= C=C(CCOC)CCC1CCCCC(=C)[C@H]1O (stereo partly specified)
Result: > 100 µM (inactive)

Q: // lookup GI50 | system=MDA-MB-435 | key= CCN(CC)CCn1ccc(=O)c2cc3c(=O)ccn(CCN(CC)CC)c3c(C)c21
Result: 4.65 µM (inactive)

Q: // lookup GI50 | system=MDA-MB-435 | key= COc1cccc2c1cc([N+](=O)[O-])c1c(C(=O)O)cc3c(c12)OCO3
Result: 54.8 µM (inactive)

Q: // lookup GI50 | system=MDA-MB-435 | key= Cn1c2ccccc2c2c3c(c4c5ccccc5n(C)c4c21)C(=O)N(c1ccccc1)C3=O
Result: > 100 µM (inactive)

Q: // lookup GI50 | system=MDA-MB-435 | key= Cc1noc(NC(=O)Nc2ccccc2F)c1C#N
Result: > 100 µM (inactive)

Q: // lookup GI50 | system=MDA-MB-435 | key= CC(C)(C)c1cc(-c2cc(C(C)(C)C)n(-c3ccccc3)n2)nn1-c1ccccc1
Result: 49.8 µM (inactive)

Q: // lookup GI50 | system=MDA-MB-435 | key= CC(=O)NC1C(OCC(=O)NCCNc2ccc([N+](=O)[O-])c3[nH]c4ccccc4c(=O)c23)C(O)C(CO)OC1(C)OCc1ccccc1 (stereo unspecified)
Result: > 100 µM (inactive)

Q: // lookup GI50 | system=MDA-MB-435 | key= N#CCCN(C(=O)Nc1ccccc1)[C@H]1CCCC[C@@H]1N(C(=O)Nc1ccccc1)c1ccccc1
Result: > 100 µM (inactive)

Q: // lookup GI50 | system=MDA-MB-435 | key= CN(N=O)C(=O)Nc1ccc(C(=O)O)cc1
Result: > 100 µM (inactive)

Q: // lookup GI50 | system=MDA-MB-435 | key= O=C(c1cc2c(c3ccccc13)NCCN=C2C(F)(F)F)C(F)(F)F
Result: 34.2 µM (inactive)

Each recorded value in this set is attributed to ChEMBL document CHEMBL1201862.
